# study.system: T1, Oct6 DNA-binding domain (BD-Oct6) (Mus musculus (B6), UniProt P21952 317-416)
# T1 sequence: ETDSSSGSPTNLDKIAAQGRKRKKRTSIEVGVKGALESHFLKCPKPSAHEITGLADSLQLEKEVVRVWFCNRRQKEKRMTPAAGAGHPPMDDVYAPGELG
# measurement.notes: EMSA; 10% glycerol, 20 mM HEPES pH 7.8, 45 mM KCl, 10 mM NaCl, 1 mM EDTA, 1 mM DTT, 0.2 ug/uL BSA, 0.1% NP-40, 50 ng poly-dIdC; 20 ng each GST protein; room temperature 30 min (heterodimers 4 C); 6% PAGE 0.25x TBE
# condition.parameters: protein: recombinant; tags: GST (N-terminal, pGEX-6P-1); label: 32P-dCTP fill-in of the 5' (dG)5 overhangs of both strands (Methods; control probes are given with GGG)
outcome.measure: binding result

binder: 111 (dsDNA) DNA 1: GGGGGTTCAACCTTTTGTTGTATCATTTAAAAAACATTCCCCC DNA 2: GGGGGAATGTTTTTTAAATGATACAACAAAAGGTTGAACCCCC
binding result: binds
//
binder: 43 (dsDNA) DNA 1: GGGGGAGGAGTGCTTTGTAAAAATAACTTCTATGTCCCCC DNA 2: GGGGGACATAGAAGTTATTTTTACAAAGCACTCCTCCCCC
binding result: no binding
//
binder: 94 (dsDNA) DNA 1: GGGGGATCTGTAAAGGAAATTACTTTGTAGGAAATTTGATGGAACTGCCCCC DNA 2: GGGGGCAGTTCCATCAAATTTCCTACAAAGTAATTTCCTTTACAGATCCCCC
binding result: binds
//
binder: 118 (dsDNA) DNA 1: GGGGGGACAAGGGTCAATTTGCTAGACAAAGATCTTCACCCCC DNA 2: GGGGGTGAAGATCTTTGTCTAGCAAATTGACCCTTGTCCCCCC
binding result: no binding
//
binder: 93 (dsDNA) DNA 1: GGGGGATAGAGGCACAAAAATTTCCAGAGACTGGCCCCC DNA 2: GGGGGCCAGTCTCTGGAAATTTTTGTGCCTCTATCCCCC
binding result: no binding

Okay, next one:
Q: Data request, read-out binding result, for 50 (dsDNA) DNA 1: GGGGGTTTGTAAGTTTGTACCATTTGGCCTCAGCCCCCCC DNA 2: GGGGGGGCTGAGGCCAAATGGTACAAACTTACAAACCCCC
Result: no binding
